Test system: 242566-281-R-J2-PDC complex spheroid viability;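 note: spheroids exposed to compound for 7 days before readout; 100% = DMSO vehicle control wells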
ASSAY_EXPLANATION: Anticancer human tumor 242566-281-R-J2-PDC patient-derived pancreatic carcinoma cell line growth inhibition [RAS]
RUN_CONDITIONS: second compound 0.01 µM; first compound 10 µM; hits give low values
From the text: RAS pathway inhibitors in Combinations in Complex Spheroids A high-throughput screen of multi-cell type tumor spheroids was designed to identify active combinations of RAS pathway inhibitors and targeted small molecules. Complex spheroids include a stromal component modeled by human endothelial cells (HUVEC) and fibroblasts modeled by human mesenchymal stem cells (MSCs). […] Compounds. […] If the clinical Cmax for an agent had not been determined, the highest concentration tested was 10 microM. […]
ATTRIBUTE_MEASURED: viability, T/C (%)
Give a bare numeral; the unit % is implied.

Cc1nc(N2CCC3(CC2)COC(C)C3N)c(CO)nc1Sc1ccnc(N)c1Cl (stereo not drawn) + C=CC(=O)N1CCN(c2nc(OCC3CCCN3C)nc3c(F)c(-c4nc(N)cc(C)c4C(F)(F)F)c(Cl)cc23)C(C)C1
116

### Prompt Recall and state the measured viability, T/C for CC1(O)CCCC1n1c(=O)c(C(F)F)cc2cnc(NC3CCN(S(C)(=O)=O)CC3)nc21 (stereo not drawn) + C=CC(=O)N1CCN(c2nc(OCC3CCCN3C)nc3c(F)c(-c4nc(N)cc(C)c4C(F)(F)F)c(Cl)cc23)C(C)C1 .
### Response 68.9

### Prompt Recall and state the measured viability, T/C for C[C@@H](NC(=O)c1ncnc(N)c1Cl)c1ncc(C(=O)Nc2cc(C(F)(F)F)c(Cl)cn2)s1 + C=CC(=O)N1CCN(c2nc(OCC3CCCN3C)nc3c(F)c(-c4nc(N)cc(C)c4C(F)(F)F)c(Cl)cc23)C(C)C1 .
### Response 122
